# measurement_notes: in vitro
# assay_conditions: rat, microsomes, pH 7.4
observable: half-life at 2 μM (min)
Give your result in min as a bare value.

Give me measured half-life at 2 μM, please, for this compound: [2H]c1c(C([2H])([2H])[2H])c([2H])n2c(C(=O)NCc3ccc(C(F)(F)F)cc3)c(C)nc2c1[2H] [Compound 30]
50

====

# measurement_notes: in vitro
# assay_conditions: monkey, microsomes, pH 7.4
observable: half-life at 2 μM (min)
Give your result in min as a bare value.

Sample records with half-life at 2 μM:
{"compound": "[2H]c1c(C([2H])([2H])[2H])cn2c(C(=O)NCc3ccc(C(F)(F)F)cc3)c(C([2H])([2H])[2H])nc2c1[2H] [Compound 55]", "half-life at 2 μM (min)": 14}
{"compound": "[2H]c1c(C)cn2c(C(=O)NCc3ccc(C(F)(F)F)cc3)c(C([2H])([2H])[2H])nc2c1[2H] [Compound 52]", "half-life at 2 μM (min)": 12}

Proceeding to the next compound to report its half-life at 2 μM.
Give me measured half-life at 2 μM, please, for this compound: [2H]c1c(C([2H])([2H])[2H])c([2H])n2c(C(=O)NCc3ccc(C(F)(F)F)cc3)c(C)nc2c1[2H] [Compound 30]
12

====

# Tested on: Mycobacterium tuberculosis H37Rv
# measurement_notes: Alamar blue metabolic readout assay
# Type: cell-based
# assay_conditions: M. tuberculosis H37Rv, GAS media
observable: GAS MIC
Reply with a number, then the unit it belongs to.

Sample records with GAS MIC:
{"compound": "[2H]c1c(C([2H])([2H])[2H])c([2H])n2c(C(=O)NCc3ccc4c(c3)CCCO4)c(C)nc2c1[2H] [Compound 39]", "GAS MIC": "0.0225 ± 0.0018 µM"}
{"compound": "[2H]c1c(C([2H])([2H])[2H])c([2H])n2c(C(=O)NCc3cc(Cl)cc(Cl)c3)c(C)nc2c1[2H] [Compound 47]", "GAS MIC": "0.0188 ± 0.0028 µM"}
{"compound": "[2H]c1c(C([2H])([2H])[2H])c([2H])n2c(C(=O)NCc3cccc(OC)c3)c(C)nc2c1[2H] [Compound 45]", "GAS MIC": "0.0205 ± 0.0004 µM"}
{"compound": "[2H]c1c(C([2H])([2H])[2H])c([2H])n2c(C(=O)NCc3ccc4c(c3)OCCO4)c(C)nc2c1[2H] [Compound 40]", "GAS MIC": "0.0101 ± 0.001 µM"}
{"compound": "[2H]c1c(C([2H])([2H])[2H])c([2H])n2c(C(=O)NCc3ccc(F)cc3)c(C)nc2c1[2H] [Compound 29]", "GAS MIC": "0.0233 ± 0.0005 µM"}

Give me measured GAS MIC, please, for this compound: [2H]c1c(C([2H])([2H])[2H])c([2H])n2c(C(=O)NCc3ccccc3Cl)c(C)nc2c1[2H] [Compound 42]
0.0134 ± 0.0022 µM

Give me measured GAS MIC, please, for this compound: [2H]c1c(C([2H])([2H])[2H])c([2H])n2c(C(=O)NCc3ccc(C(F)(F)F)cc3)c(C)nc2c1[2H] [Compound 30]
0.0091 ± 0.0058 µM

====

# measurement_notes: in vitro
# assay_conditions: mouse, microsomes, pH 7.4
observable: half-life at 2 μM (min)
Give your result in min as a bare value.

{"mol_smiles": "[2H]c1c(C([2H])([2H])[2H])c([2H])n2c(C(=O)NCc3ccc(C(F)(F)F)cc3)c(C)nc2c1[2H]", "half-life at 2 μM, min": 20}
{"mol_smiles": "[2H]c1c(C([2H])([2H])[2H])cn2c(C(=O)NCc3ccc(C(F)(F)F)cc3)c(C([2H])([2H])[2H])nc2c1[2H]", "half-life at 2 μM, min": 33}

Proceeding to the next compound to report its half-life at 2 μM.
Give me measured half-life at 2 μM, please, for this compound: `[2H]c1c(C)cn2c(C(=O)NCc3ccc(C(F)(F)F)cc3)c(C([2H])([2H])[2H])nc2c1[2H]`
16

====

# Tested on: Mycobacterium tuberculosis H37Rv
# measurement_notes: Alamar blue metabolic readout assay
# Type: cell-based
# assay_conditions: M. tuberculosis H37Rv, GAS media
observable: GAS MIC (nM)
Give your result in nM as a bare value.

Sample records with GAS MIC:
{"molecule": "[2H]c1c(C([2H])([2H])[2H])cn2c(C(=O)NC([2H])([2H])c3ccc(C(F)(F)F)cc3)c(C([2H])([2H])[2H])nc2c1[2H] [Compound 57]", "test_value": 5.7}
{"molecule": "[2H]c1c(C([2H])([2H])[2H])c([2H])n2c(C(=O)NCc3cc(F)cc(F)c3)c(C)nc2c1[2H] [Compound 46]", "test_value": 7.2}
{"molecule": "CCc1nc2ccc(Cl)cn2c1C(=O)NCc1ccc(N2CCC(c3ccc(OC(F)(F)F)cc3)CC2)cc1 [Compound Q203, Telacebec, reference compound]", "test_value": 0.9}
{"molecule": "[2H]c1c(C([2H])([2H])[2H])c([2H])n2c(C(=O)NCc3cccc(Cl)c3)c(C)nc2c1[2H] [Compound 41]", "test_value": 3.5}
{"molecule": "[2H]c1c(C([2H])([2H])[2H])c([2H])n2c(C(=O)NCc3ccc(OC)cc3)c(C)nc2c1[2H] [Compound 37]", "test_value": 24.5}

Give me measured GAS MIC, please, for this molecule: [2H]c1c(C([2H])([2H])[2H])c([2H])n2c(C(=O)NCc3ccc(OC(F)(F)F)cc3)c(C)nc2c1[2H] [Compound 34]
2.2

Give me measured GAS MIC, please, for this molecule: [2H]c1c(C([2H])([2H])[2H])c([2H])n2c(C(=O)NCc3ccc(OCC)cc3)c(C)nc2c1[2H] [Compound 38]
9.2

Give me measured GAS MIC, please, for this molecule: [2H]c1c(C([2H])([2H])[2H])c([2H])n2c(C(=O)NCc3ccc(Cl)cc3)c(C)nc2c1[2H] [Compound 31]
12.0
